Reference for the values: ChEMBL document CHEMBL3244008

# System: Escherichia coli B
# assayComment: Inhibition of Escherichia coli B thymidine kinase using [2-14C]-thymidine as substrate assessed as formation of [14C]-TMP at 1 mM after 10 mins by liquid scintillation spectrometric analysis relative to control
measuredMetric: inhibition (%)

smilesEntry	assayedTarget	unitLabel	inhibition
CC(=O)NC[C@H]1O[C@@H](n2cc(C)c(=O)[nH]c2=O)C[C@@H]1O	Escherichia coli B	%	0
NCc1cn([C@H]2C[C@H](O)[C@@H](CO)O2)c(=O)[nH]c1=O	Escherichia coli B	%	25
CCn1c(=O)c(C)cn([C@H]2C[C@H](O)[C@@H](CO)O2)c1=O	Escherichia coli B	%	44
CCCCCn1c(=O)c(C)cn([C@H]2C[C@H](O)[C@@H](CO)O2)c1=O	Escherichia coli B	%	59
CCCn1c(=O)c(C)cn([C@H]2C[C@H](O)[C@@H](CO)O2)c1=O	Escherichia coli B	%	39
CC(=O)N(C)CCCCN(C)C[C@H]1O[C@@H](n2cc(C)c(=O)[nH]c2=O)C[C@@H]1O	Escherichia coli B	%	14

1 = CCn1c(=O)ccn([C@H]2C[C@H](O)[C@@H](CO)O2)c1=O
2 = CC(=O)N(C)CCN(C)C[C@H]1O[C@@H](n2cc(C)c(=O)[nH]c2=O)C[C@@H]1O
Q. Select one. Lower inhibition: 1 or 2 Answer by quoting the chosen item's label.
A. 2
(2: 0%, 1: 22%)

P = CC(=O)N(C)CCCCCCN(C)C[C@H]1O[C@@H](n2cc(C)c(=O)[nH]c2=O)C[C@@H]1O
Q = CCCC(=O)NC[C@H]1O[C@@H](n2cc(C)c(=O)[nH]c2=O)C[C@@H]1O
Q. When their inhibition values are compared, which is larger, P or Q ? Answer by quoting the chosen item's label.
A. P
